Catalogue of molecules with associated IC50
Molecular target: mAb SH2
Assay: Competitive ELISA: inhibition of mAb SH2 binding to immobilized (DimLe^x)16-BSA conjugate 1
Parameters: species or system mouse
Conditions: Table 1; DimLe^x-BSA conjugate 1 immobilized (5 μg/mL); SH2 ascites 1:500; read-out: IC50 (concentration of inhibitor required for 50% inhibition)
Field: numeric (µM). Do not append units.

Worked examples follow.
>  <MOLECULE>
CO[C@@H]1O[C@H](CO)[C@@H](O[C@@H]2O[C@H](CO)[C@H](O)[C@H](O[C@@H]3O[C@H](CO)[C@@H](O)[C@H](O)[C@H]3NC(C)=O)[C@H]2O)[C@H](O[C@@H]2O[C@@H](C)[C@@H](O)[C@@H](O)[C@@H]2O)[C@H]1NC(C)=O [compound 10, GlcNAc[1,3″]Le^x]

>  <IC50, µM>
18600

$$$$
>  <MOLECULE>
CC(=O)NC1C(OC2C(O)C(O)OC(CO)C2O)OC(CO)C(OC2OC(CO)C(O)C(O)C2O)C1OC1OC(C)C(O)C(O)C1O (stereo not shown) [compound 9, Lex[1,3]Gal, reference compound]

>  <IC50, µM>
529

$$$$
>  <MOLECULE>
CCCO[C@@H]1O[C@H](CO)[C@@H](O[C@@H]2O[C@H](CO)[C@H](O)[C@H](O[C@@H]3O[C@H](CO)[C@@H](O[C@@H]4O[C@H](CO)[C@H](O)[C@H](O)[C@H]4O)[C@H](O[C@@H]4O[C@@H](C)[C@@H](O)[C@@H](O)[C@@H]4O)[C@H]3NC(C)=O)[C@H]2O)[C@H](O[C@@H]2O[C@@H](C)[C@@H](O)[C@@H](O)[C@@H]2O)[C@H]1NC(C)=O [compound 6, DimLe^x propyl hexasaccharide]

>  <IC50, µM>
503

$$$$

// next entry
IC50 measured on CO[C@@H]1O[C@H](CO)[C@@H](O[C@@H]2O[C@H](CO)[C@H](O)[C@H](O)[C@H]2O)[C@H](O[C@@H]2O[C@@H](C)[C@@H](O)[C@@H](O)[C@@H]2O)[C@H]1NC(C)=O [compound 7, Le^x methyl glycoside] = 47

* * *

Test system: mAb SH2
Assay: Competitive ELISA: inhibition of mAb SH2 binding to immobilized (DimLe^x)16-BSA conjugate 1
Design: species or system mouse
Conditions: Table 2; reference inhibitor Le^x 7; T = 296 K; --- = No inhibition
MEASURE NAME: SH2 ∆(∆G) (kcal/mol)
Field: numeric (kcal/mol). Do not append units.

>  <MOLECULE>
CO[C@@H]1O[C@H](CO)[C@@H](O[C@@H]2O[C@H](CO)[C@H](O)[C@H](O)[C@H]2O)[C@H](O[C@@H]2O[C@@H](C)[C@H](O)[C@@H](O)[C@H]2O)[C@H]1NC(C)=O [compound 17, RhaLe^x]

>  <UNIT OF MEASURE>
kcal/mol

>  <SH2 ∆(∆G)>
1.7

$$$$
>  <MOLECULE>
CO[C@@H]1O[C@H](CO)[C@@H](O[C@@H]2O[C@H](CO)C[C@H](O)[C@H]2O)[C@H](O[C@@H]2O[C@@H](C)[C@@H](O)[C@@H](O)[C@@H]2O)[C@H]1O [compound 20, 4″-HLe^x]

>  <UNIT OF MEASURE>
kcal/mol

>  <SH2 ∆(∆G)>
0.3

$$$$

// next entry
SH2 ∆(∆G) measured on CO[C@@H]1O[C@H](CO)[C@@H](O[C@@H]2O[C@H](CO)[C@H](OC)[C@H](O)[C@H]2O)[C@H](O[C@@H]2O[C@@H](C)[C@@H](O)[C@@H](O)[C@@H]2O)[C@H]1O [compound 19] = 0.7
